# Test system: HBEGF locus
# Type: cell-based, human
# Protocol conditions: high-throughput screen of dXR repression of the HBEGF gene; change in abundance of each domain in the library before and after diphtheria toxin selection
Endpoint: Log2 (fold change)

Molecule	Endpoint	Reported
DOMAIN_3832 (protein, listed as Macaca mulatta) TMSCSRAGGITGCIKYSTASVAFRDVAVDFTQEEWRLLSPAQRTLHREVMLETYNHLVSLEIPSSKPKLIAQLERGEEPWR	Log2 (fold change)	2.7334
DOMAIN_4774 (protein, listed as Callithrix sp.) HGSSYEGSVSFRDVAINFSREEWRHLDLSQRNLYWDVMLETYSHLLSVGYQFPKPEVVMLEQGNEPWALQGERPRHSCPGE	Log2 (fold change)	2.8894
